# System: SUM149
# Procedure text: GRmax, 72 h; higher = less effect;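 note: breast cell lines in 384-well plates, nine doses across a 10^4 range, Dye Drop imaging of viable cells vs DMSO and time-zero plates, GR 0 means no net growth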
# binarize GRmax, 72 h: threshold -0.2 GR inclusive, high side Met, low side Not met

{"columns": ["Compound", "Class"],
 "data": [
  ["CN(C)C/C=C/C(=O)Nc1ccc(C(=O)Nc2cccc(Nc3cc(-c4c[nH]c5ccccc45)ncn3)c2)cc1 [THZ-P1-2] (max 10 µM)", "Not met"],
  ["Cc1nc(-c2cn3c(n2)-c2ccc(-c4cnn(C(C)(C)C(N)=O)c4)cc2OCC3)n(C(C)C)n1 [Taselisib/GDC0032] (max 10 µM)", "Not met"],
  ["CCc1cnn2c(NCc3ccc[n+]([O-])c3)cc(N3CCCC[C@H]3CCO)nc12 (max 1 µM)", "Not met"],
  ["CN(C)C/C=C/C(=O)Nc1ccc(C(=O)Nc2cccc(Nc3ncc(Cl)c(-c4c[nH]c5ccccc45)n3)c2)cc1 [THZ1] (max 1 µM)", "Not met"],
  ["Cc1cc(Nc2ncc(Cl)c(Nc3ccccc3S(=O)(=O)C(C)C)n2)c(OC(C)C)cc1C1CCNCC1 [Ceritinib/LDK378] (max 10 µM)", "Not met"],
  ["CCN1CCN(Cc2ccc(Nc3ncc(F)c(-c4cc(F)c5nc(C)n(C(C)C)c5c4)n3)nc2)CC1 (max 10 µM)", "Met"],
  ["CN1CCN(C(=O)c2ccc3cc(CCNc4ncnc5ccc(C#N)cc45)ccc3c2)CC1 [senexin b] (max 10 µM)", "Met"]
]}

Let us examine a further case.
Task item: Kindly determine if GRmax, 72 h recorded for C=CCn1c(=O)c2cnc(Nc3ccc(N4CCN(C)CC4)cc3)nc2n1-c1cccc(C(C)(C)O)n1 [AZD1775] (max 10 µM) is above or exactly -0.2 GR.
Reply: Not met

----------
# Tested on: EVSAT
# Procedure text: area over the GR curve, 72 h; higher = more effect;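 note: Dye Drop or Deep Dye Drop imaging of viable cells in 384-well plates (Hoechst nuclei, LIVE/DEAD dye), nine half-log doses, GR normalized to DMSO controls and time-zero plates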
Could you label it class 1 if measured area over the GR curve is 0.06 GR or higher, and class 0 otherwise?

Below are worked cases with known answers.
{"columns": ["Molecule", "Class"],
 "data": [
  ["NC1(C(=O)N[C@@H](CCO)c2ccc(Cl)cc2)CCN(c2nc[nH]c3nccc2-3)CC1 [AZD5363] (max 10 µM)", "class 1"],
  ["CC(=O)Nc1cccc(-n2c(=O)n(C3CC3)c(=O)c3c(Nc4ccc(I)cc4F)n(C)c(=O)c(C)c32)c1 (max 1 µM)", "class 0"],
  ["CC(C)Nc1cc(-c2c[nH]c(C(=O)N[C@H](CO)c3cccc(Cl)c3)c2)c(Cl)cn1 [BVD523] (max 10 µM)", "class 0"],
  ["CN(C)C/C=C/C(=O)Nc1ccc(C(=O)N2CCC[C@@H](Nc3ncc(Cl)c(-c4c[nH]c5ccccc45)n3)C2)cc1 [THZ531] (max 1 µM)", "class 1"],
  ["O=C(CCCCCCC(=O)Nc1ccccc1)NO [Vorinostat] (max 10 µM)", "class 1"],
  ["CCc1cnn2c(NCc3ccc[n+]([O-])c3)cc(N3CCCC[C@H]3CCO)nc12 (max 1 µM)", "class 1"],
  ["CO[C@H]1C[C@@H]2CC[C@@H](C)[C@@](O)(O2)C(=O)C(=O)N2CCCC[C@H]2C(=O)O[C@H]([C@H](C)C[C@@H]2CC[C@@H](OCCO)[C@H](OC)C2)CC(=O)[C@H](C)/C=C(\\C)[C@@H](O)[C@@H](OC)C(=O)[C@H](C)C[C@H](C)/C=C/C=C/C=C/1C [Everolimus] (max 10 µM)", "class 1"],
  ["CNCc1ccc(-c2[nH]c3cc(F)cc4c3c2CCNC4=O)cc1 [Rucaparib] (max 10 µM)", "class 0"]
]}

Task item: Reported area over the GR curve at or above 0.06 GR? COc1cccc2c1C(=O)c1c(O)c3c(c(O)c1C2=O)C[C@@](O)(C(=O)CO)C[C@@H]3O[C@H]1C[C@H](N)[C@H](O)[C@H](C)O1 [Doxorubicin] (max 3.162 µM)
Reply: class 1

Task item: Is area over the GR curve for CC1(N)CCN(c2cnc(-c3cccc(Cl)c3Cl)c(N)n2)CC1 [SHP099] (max 10 µM) at or above 0.06 GR?
Reply: class 0

Task item: Could you tell me if the measured area over the GR curve of Cc1cc(Nc2ncc(Cl)c(Nc3ccccc3S(=O)(=O)C(C)C)n2)c(OC(C)C)cc1C1CCNCC1 [Ceritinib/LDK378] (max 10 µM) reaches 0.06 GR or more?
Reply: class 1

Task item: Given the entry CCOc1cc2ncc(C#N)c(Nc3ccc(OCc4ccccn4)c(Cl)c3)c2cc1NC(=O)/C=C/CN(C)C [Neratinib/HKI272] (max 3.162 µM) , answer whether its area over the GR curve meets or surpasses 0.06 GR.
Reply: class 1
